tested on: CAKI-1 renal; test: NCI tumour cell line growth inhibition, 48 h

Compound	TGI
O=C1NC(=O)C2C(=O)NC(=O)C1C2Cc1ccco1 (stereo not given)	> 100 µM
COC1(OC)CCc2c(sc3ncnc(Nc4cccc(Br)c4)c23)C1	> 100 µM
N#Cc1sc2nc3ccccc3n2c1N	> 100 µM
OCC1CC[N-]CC1.OCC1CC[N-]CC1.[Cl][Pt+2]([Cl])([Cl])[Cl]	81.5 µM
COc1ccc2ccccc2c1C1=NC(C)(C)CO1	> 100 µM
O=C(NCCc1ccccc1)C1C(=O)C(=O)N(CCc2ccccc2)C1=O (stereo not given)	> 100 µM
O=c1cc(Nc2cccc(O)c2)[nH]c(=O)[nH]1	> 100 µM
CCOC(=O)C1(C)CCC(C(C(=O)O)C(=O)O)CC1=O (stereo not given)	> 100 µM
N#Cc1c(NC(=O)C(F)(F)F)sc2c3c(=O)c4ccccc4c(=O)c=3oc3ccccc3c12	31.4 µM
O=C1c2cc(O)c(O)cc2O[C@H](c2ccc(O)c(O)c2)[C@H]1O	> 100 µM
C=CCN(CC=C)C(=O)c1cc(C)nc2c1c(=O)n(-c1ccccc1)c(=O)n2CCCN1CCN(c2ccccc2OC)CC1	> 50 µM
Oc1c(N2CCCCC2)cc(-c2cc(N3CCCCC3)c(O)c3ccccc23)c2ccccc12	> 100 µM
COc1ccc(-c2oc3cc(-c4cc5oc(-c6ccc(OC)cc6)c(-c6ccc(OC)cc6)c5cc4OC)c(OC)cc3c2-c2ccc(OC)cc2)cc1	> 100 µM
O=C1c2ccccc2C(=O)c2c(NC3CCCCC3)ccc(Nc3ccc(S(=O)(=O)O)cc3)c21	> 100 µM
O=c1[nH]c(N/N=C\C(O)C(O)C(O)C(O)CO)nc2ccccc12 (stereo not given)	> 100 µM
CCCCCCCCCCCCCCCCCCNc1ccn(C2OC(COP(=O)(O)OCC3OC(n4ccc(N)nc4=O)C(O)C3O)C(O)C2O)c(=O)n1 (stereo not given)	> 100 µM
CN1C(=O)CC(=O)N1/C(=C/c1ccccc1)c1ccccc1	62.5 µM
Cc1ccc(OCC2OC(n3cnc4c(Cl)nc(Nc5cc(Cl)cc(Cl)c5)nc43)CC2Oc2ccc(C)cc2)cc1 (stereo not given)	> 100 µM
NNC(=O)C(=O)NN=C(C(Cl)(Cl)CO)C(Cl)(Cl)CO	97.4 µM
COC(=O)C(C(=O)C(=O)Nc1c(Cl)cc([N+](=O)[O-])cc1Cl)c1csc(-n2nc(C3=CCCCC3)cc2-c2ccccc2)n1 (stereo not given)	> 100 µM
